Measured TGI accompanies every entry in the list below.
Tested on: K-562 leukemia
Assay notes: NCI tumour cell line growth inhibition, 48 h
Reported property: TGI

Compound: S=c1c2cn[nH]c2nc2scc(-c3ccc(Cl)cc3)n12
Assayed target: K-562 leukemia
Result: > 100 µM
//
Compound: COc1cc(Cl)cc(-c2nn(-c3cccc(NC(=O)c4ccc(N5CCOCC5)c(C(F)(F)F)c4)c3)cc2-c2ccncc2)c1
Assayed target: K-562 leukemia
Result: > 100 µM
//
Compound: C/C(=N\N=C1/C(=O)OC(c2ccccc2)=C1C(=O)c1ccccc1)c1ccc([N+](=O)[O-])cc1
Assayed target: K-562 leukemia
Result: > 100 µM
//
Compound: CC(=O)Nc1ccc(-c2csc(Nc3cccc(-c4csc(C)n4)c3)n2)cc1
Assayed target: K-562 leukemia
Result: 9.55 µM
//
Compound: COc1ccc(CCN(C)C2CCC(C#N)(c3ccc(OC)c(OC)c3)CC2)cc1OC (stereo not drawn)
Assayed target: K-562 leukemia
Result: > 100 µM
//
Compound: C/C(CC(=O)Nc1ccc(C)c(C)c1)=N\N(c1ccccc1)c1ccccc1
Assayed target: K-562 leukemia
Result: 68.9 µM
//
Compound: O=C1CCC(c2ccccc2)=NN1c1nsc2ccccc12
Assayed target: K-562 leukemia
Result: > 100 µM
//
Compound: O=c1oc2ccc(-c3ccc(F)cc3F)cc2c(=O)n1-c1cccc(C(F)(F)F)c1
Assayed target: K-562 leukemia
Result: 18.2 µM
//
Compound: COc1cc(N=Nc2ccc(O)c3ncccc23)c2ncccc2c1
Assayed target: K-562 leukemia
Result: > 100 µM
//
Compound: O=C(O)CN1CCNCCN(CC(=O)O)CCN(CC(=O)O)CCNCC1
Assayed target: K-562 leukemia
Result: > 100 µM
//
Compound: NNC(=O)CNc1cccc(Br)c1
Assayed target: K-562 leukemia
Result: > 100 µM
//
Compound: CN(C)CCC(/C=C/c1ccccc1)=N\Nc1ccccc1
Assayed target: K-562 leukemia
Result: 10.5 µM
//
Compound: O=C(Nc1cc(C(F)(F)F)cc(C(F)(F)F)c1)c1cc(Cl)ccc1O
Assayed target: K-562 leukemia
Result: > 61.3 µM
//
Compound: O=C(Cc1ccc(F)c(Cl)c1)Nc1cc(C2(C(F)(F)F)CC2)nn1CC1CCCCC1
Assayed target: K-562 leukemia
Result: > 15 µM
//
Compound: O=C(c1ccco1)c1c(C(F)(F)F)nc2ccc(Cl)cc2[n+]1[O-]
Assayed target: K-562 leukemia
Result: > 100 µM
//
Compound: O=C(O)COc1ccccc1C(=O)Nc1ccccc1
Assayed target: K-562 leukemia
Result: > 100 µM
//
Compound: CN(C)C(=S)/N=c1\sn(C)/c(=N\C(=S)N(C)C)n1C
Assayed target: K-562 leukemia
Result: > 100 µM
//
Compound: CCOS(C)(=O)=O
Assayed target: K-562 leukemia
Result: > 100 µM
//
Compound: O=[N+]([O-])C(=C(Nc1ccccc1)Nc1ccccc1)C(Cl)=C(Cl)Cl
Assayed target: K-562 leukemia
Result: 33.4 µM
//
Compound: Cc1nc(N)sc1N=Nc1ccccc1Br
Assayed target: K-562 leukemia
Result: > 100 µM
//
Compound: N#CC(C#N)=C1SC(=Nc2ccccc2)C(=Nc2ccccc2)N1c1ccccc1
Assayed target: K-562 leukemia
Result: 7.12 µM
//
Compound: O=C1NC2c3c(I)sc(I)c3C(O)C2O1 (stereo not drawn)
Assayed target: K-562 leukemia
Result: > 100 µM
//
Compound: CCOC(=O)c1ccc(/C(C)=N/NC(N)=S)cc1
Assayed target: K-562 leukemia
Result: > 100 µM

* * *

Test system: SF-268 CNS
Assay notes: NCI tumour cell line growth inhibition, 48 h; in the data active = GI50 below about 0.43 µM; inactive = the rest
Classes used: label 1 (active), label 0 (inactive)

Molecule: CNCCOC(=O)/C=C1\CC[C@H]2[C@@H]([C@@H](O)C(=O)[C@@H]3[C@]2(C)CC[C@H](O)[C@]3(C)C(=O)OC)[C@H]1C
Category label: label 1

Molecule: CN(C)C1CCN(C(=O)c2ccc(NC(=O)Nc3ccc(-c4nc(N5CCOCC5)c5cccn5n4)cc3)cc2)CC1
Category label: label 1

Molecule: COc1cnc2c(c1)C(=O)c1c-2n(CCCNC2=NCCS2)c(=O)c2cc([N+](=O)[O-])ccc12
Category label: label 1

Molecule: O=C(Nc1cc(C(F)(F)F)cc(C(F)(F)F)c1)c1cc(Cl)ccc1O
Category label: label 1

Molecule: CCOC(=O)Nc1cc2c(c(N)n1)N=C(c1ccccc1)CO2
Category label: label 1

Molecule: O=c1oc2ccc(-c3ccc(F)cc3F)cc2c(=O)n1-c1cccc(C(F)(F)F)c1
Category label: label 0

Molecule: Cc1cc(N[C@@H]2CCC[C@H](Nc3ccnc4cc(Cl)ccc34)C2)nc(N2CCCCCC2)n1
Category label: label 0

Molecule: COc1cc(C(=O)N2CCN(C(=O)c3cc(OC)c(OC)c(OC)c3)C2=S)cc(OC)c1OC
Category label: label 0

Molecule: COC(=O)[C@]12CC[C@@H](C)[C@H](C)[C@@H]1C1=CC[C@@H]3[C@@]4(C)C[C@@H](O)[C@H](O)[C@@](C)(CO)C4=CC[C@@]3(C)[C@]1(C)CC2
Category label: label 0

Molecule: COC(=O)c1ccc2c(c1)C(=O)c1c-2n(CCCN=[N+]=[N-])c(=O)c2cc(OC)c(OC)cc12
Category label: label 0

Molecule: CCCC(=O)Nc1cn(COC)c(C(=O)N2C[C@@H]3C[C@]34C2=CC(=O)c2[nH]cc(C)c24)n1
Category label: label 0

Molecule: NC1CCN(Cc2ccccc2)CC1
Category label: label 0

Molecule: CCn1c(O)c(/C=N/NC(=O)C(C)c2ccc(CC(C)C)cc2)sc1=S (stereo unspecified)
Category label: label 0

Molecule: O=C(Cc1ccc(F)c(Cl)c1)Nc1cc(C2(C(F)(F)F)CC2)nn1CC1CCCCC1
Category label: label 0

Molecule: CC(C)(/C=C(\C#N)C(=O)N1CCC[C@@H](n2nc(-c3ccc(Oc4ccccc4)cc3F)c3c(N)ncnc32)C1)N1CCN(C2COC2)CC1
Category label: label 0

Molecule: O=C(/C=C/c1ccc[nH]1)c1ccc(-n2ccc(C(F)(F)F)n2)cc1
Category label: label 0

* * *

Test system: SNB-75 CNS
Assay notes: NCI tumour cell line growth inhibition, 48 h; in the data active = GI50 below about 0.43 µM; inactive = the rest
Classes used: TRUE for active, FALSE for inactive

Structure: COc1cc(C(=O)N2CCN(C(=O)c3cc(OC)c(OC)c(OC)c3)C2=S)cc(OC)c1OC
Category label: FALSE
//
Structure: Cc1cc(N[C@@H]2CCC[C@H](Nc3ccnc4cc(Cl)ccc34)C2)nc(N2CCCCCC2)n1
Category label: FALSE
//
Structure: Cc1nc(Nc2cccnc2)sc1C(=O)/C=C/c1ccc(F)cc1
Category label: FALSE
//
Structure: COC(=O)c1c2c(c(C)[n+]([O-])c1C)C(=O)C=C(NCc1ccc(F)cc1)C2=O
Category label: FALSE
//
Structure: CCOC(=O)N[C@H]1CCc2cc(OC)c(OC)c(OC)c2-c2ccc(SC)c(=O)cc21
Category label: TRUE

* * *

Tested on: COLO 205 colon
Assay notes: NCI tumour cell line growth inhibition, 48 h

Compound: CN(C)CCC(/C=C/c1ccccc1)=N\Nc1ccccc1
Assayed target: COLO 205 colon
Operator: =
TGI, µM: 3.7
//
Compound: CN(C)CC[C@H](CSc1ccccc1)Nc1ccc(S(=O)(=O)NC(=O)c2ccc(N3CCN(Cc4ccccc4-c4ccc(Cl)cc4)CC3)cc2)cc1[N+](=O)[O-]
Assayed target: COLO 205 colon
Operator: =
TGI, µM: 4.7
//
Compound: CC(=O)ON1CCCC(P(=O)(OCCSC(=O)C(C)(C)C)OCCSC(=O)C(C)(C)C)C1=O (stereo not given)
Assayed target: COLO 205 colon
Operator: >
TGI, µM: 100
//
Compound: CN(C)C1CCN(C(=O)c2ccc(NC(=O)Nc3ccc(-c4nc(N5CCOCC5)c5cccn5n4)cc3)cc2)CC1
Assayed target: COLO 205 colon
Operator: =
TGI, µM: 1.42
//
Compound: COc1ccc2nc3ccccc3c(NCc3ccc(F)cc3)c2c1
Assayed target: COLO 205 colon
Operator: =
TGI, µM: 2.78
//
Compound: O=C1CC2(CCC(O)(c3ccc4ccccc4c3)C(C(=O)c3ccc4ccccc4c3)C2)C(=O)c2ccccc2N1 (stereo not given)
Assayed target: COLO 205 colon
Operator: >
TGI, µM: 100
//
Compound: O=C(O)COc1ccccc1C(=O)Nc1ccccc1
Assayed target: COLO 205 colon
Operator: >
TGI, µM: 100
//
Compound: Cc1cc2c(=O)c3ccccc3[nH]c2c(C(N)=O)c1C
Assayed target: COLO 205 colon
Operator: >
TGI, µM: 100
//
Compound: CC1CC2CCCC(O)=C2C(=O)O1 (stereo not given)
Assayed target: COLO 205 colon
Operator: >
TGI, µM: 100
//
Compound: On1c(-c2ccccc2)c(-c2ccccc2N2CCCC2)c2ccccc21
Assayed target: COLO 205 colon
Operator: >
TGI, µM: 100
